# ASSAYED TARGET: WT EcDXPS (Escherichia coli, UniProt P77488)
VALUE TYPE: pKd
Recall that pKd is obtained by taking minus log10 of the concentration measured in molar.

**Query** # returns recorded pKd (system: WT EcDXPS (Escherichia coli, UniProt P77488)) for CC(=O)P(=O)(O)OCCc1cn(C(Cc2ccccc2)Cc2ccccc2)nn1 [Compound 10]
**Result** 5.05

###

Overview of recorded Ki for various molecules
# ASSAYED TARGET: EcDXPS (Escherichia coli, UniProt P77488)
# Construct: made in house
# ASSAY TEXT: DXPS-IspC coupled assay, apparent Ki on wildtype EcDXPS
# Type: biochemical
# RUN PARAMETERS: read-out: Ki^app
Please respond with the number in nM and leave the unit unwritten.

Field: example entries. Status: answers known.
>>> measured_result("COC(=O)C(Cc1ccccc1)(Cc1ccccc1)n1cc(CCOP(=O)(O)C(C)=O)nn1")
2900
>>> measured_result("CC(=O)P(=O)(O)OCCc1cn(C2(C(=O)O)Cc3ccccc3C2)nn1")
290
>>> measured_result("CC(=O)P(=O)(O)OCCc1cn([C@@H](C(=O)O)c2ccccc2)nn1")
2100

Now look at this entry.
**Query** Fill in: Ki of `CC(=O)P(=O)(O)OCCc1cn([C@H](Cc2ccc(-c3ccccc3)cc2)C(=O)O)nn1` is ___
**Result** 8000

###

# ASSAYED TARGET: R99A EcDXPS (Escherichia coli, UniProt P77488, R99A)
# Sequence (P77488 whole entry R99A): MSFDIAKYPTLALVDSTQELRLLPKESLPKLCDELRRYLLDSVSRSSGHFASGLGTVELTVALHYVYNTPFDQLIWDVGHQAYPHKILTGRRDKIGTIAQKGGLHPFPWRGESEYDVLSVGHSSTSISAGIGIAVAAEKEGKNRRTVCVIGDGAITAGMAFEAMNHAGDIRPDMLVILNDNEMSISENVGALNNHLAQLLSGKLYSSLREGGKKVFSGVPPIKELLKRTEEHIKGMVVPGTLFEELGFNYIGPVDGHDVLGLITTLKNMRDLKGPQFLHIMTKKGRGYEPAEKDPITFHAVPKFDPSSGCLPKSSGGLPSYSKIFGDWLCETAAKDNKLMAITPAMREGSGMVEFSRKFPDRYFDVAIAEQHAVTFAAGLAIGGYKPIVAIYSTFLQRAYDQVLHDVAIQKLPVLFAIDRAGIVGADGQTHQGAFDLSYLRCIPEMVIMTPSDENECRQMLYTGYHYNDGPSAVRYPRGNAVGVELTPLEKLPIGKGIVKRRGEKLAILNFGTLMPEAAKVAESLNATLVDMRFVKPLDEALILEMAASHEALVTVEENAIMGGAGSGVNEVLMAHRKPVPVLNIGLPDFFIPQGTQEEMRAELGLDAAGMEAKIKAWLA
# ASSAY TEXT: IC50 determination for 8 on R99A EcDXPS variant
# RUN PARAMETERS: 400 nM DXPS, 2 × Km pyruvate, 10 × Km D-GAP
VALUE TYPE: IC50 (µM)
Numeric answer only, unit µM assumed.

**Query** Name the recorded IC50 for CC(=O)P(=O)(O)OCCc1cn(C(Cc2ccccc2)(Cc2ccccc2)C(=O)O)nn1 [Compound 8] .
**Result** 3.01

###

# ASSAYED TARGET: EcDXPS (Escherichia coli, UniProt P77488)
# Construct: made in house
# ASSAY TEXT: DXPS-IspC coupled assay, apparent Ki on wildtype EcDXPS
# Assay type: biochemical
# RUN PARAMETERS: relative to compound 1
Outcome label depends on fold change in Ki^app relative to 1 relative to 8 fold: at/above gives 1, below gives -1.

Here are 2 compounds together with their reported answers.
>>> discrete_label("CC(=O)P(=O)(O)OCCc1cn([C@H](Cc2ccc(-c3ccccc3)cc2)C(=O)O)nn1")
1
>>> discrete_label("CC(=O)P(=O)(O)OCCc1cn([C@H](Cc2ccc(OCc3ccccc3)cc2)C(=O)O)nn1")
1

**Query** # check: fold change in Ki^app relative to 1 of `CC(=O)P(=O)(O)OCCc1cn([C@@H](Cc2ccccc2)C(c2ccccc2)c2ccccc2)nn1` is greater than or equal to 8 fold
**Result** 1

**Query** Please indicate if the recorded fold change in Ki^app relative to 1 for `CC(=O)P(=O)(O)OCCc1cn([C@@H](C(=O)O)C2CCCCC2)nn1` meets or exceeds 8 fold.
**Result** -1

###

We begin with a simple list: items and their reported pKd.
# ASSAYED TARGET: R99A EcDXPS (Escherichia coli, UniProt P77488, R99A)
# ASSAY TEXT: Circular dichroism titration (PLThDP formation, apparent KD) on R99A EcDXPS
Here pKd is given on a logarithmic scale as minus log10 of the concentration in mol/L.

>>> measured_result("CC(=O)P(=O)(O)OCCc1cn(C(Cc2ccccc2)Cc2ccccc2)nn1 [Compound 10]")
4.84

Now let's try a different one.
**Query** Identify the measured pKd of CC(=O)P(=O)(O)OCCc1cn(C(Cc2ccccc2)(Cc2ccccc2)C(=O)O)nn1 [Compound 8] for R99A EcDXPS (Escherichia coli, UniProt P77488, R99A).
**Result** 4.72
